Values from patent US11492335B2

TARGET_SYSTEM: recombinant human VAP-1 (Homo sapiens, UniProt Q16853)
Construct: purchased R&D systems
Sequence (Q16853 whole entry): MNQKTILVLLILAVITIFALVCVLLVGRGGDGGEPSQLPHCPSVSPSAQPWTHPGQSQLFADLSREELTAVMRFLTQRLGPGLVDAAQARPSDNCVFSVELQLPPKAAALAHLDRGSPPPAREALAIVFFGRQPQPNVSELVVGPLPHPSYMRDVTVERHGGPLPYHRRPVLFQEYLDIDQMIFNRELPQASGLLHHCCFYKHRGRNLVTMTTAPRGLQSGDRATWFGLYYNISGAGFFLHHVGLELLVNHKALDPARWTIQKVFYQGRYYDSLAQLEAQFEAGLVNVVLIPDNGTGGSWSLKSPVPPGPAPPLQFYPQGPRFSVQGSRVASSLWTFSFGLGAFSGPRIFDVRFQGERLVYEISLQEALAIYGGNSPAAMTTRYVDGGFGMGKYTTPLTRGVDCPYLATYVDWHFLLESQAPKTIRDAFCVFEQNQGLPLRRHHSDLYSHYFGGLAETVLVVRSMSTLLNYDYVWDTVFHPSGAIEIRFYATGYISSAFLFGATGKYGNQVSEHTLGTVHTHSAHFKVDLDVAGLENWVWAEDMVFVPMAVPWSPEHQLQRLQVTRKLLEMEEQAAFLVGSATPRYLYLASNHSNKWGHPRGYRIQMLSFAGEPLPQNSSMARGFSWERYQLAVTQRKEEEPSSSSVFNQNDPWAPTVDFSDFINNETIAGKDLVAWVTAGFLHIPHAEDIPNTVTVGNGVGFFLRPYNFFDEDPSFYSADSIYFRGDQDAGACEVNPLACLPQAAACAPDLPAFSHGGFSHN
PROTOCOL_NOTES: Activity on recombinant human VAP-1, Amplex Red HRP-coupled hydrogen peroxide assay, benzylamine substrate
Type: biochemical
CONDITION_DETAILS: recombinant human VAP-1, benzylamine substrate; read-out: Inhibitory Activity (IC50, nM) human VAP-1
Counter-ions that a name gives are not always drawn.
Collected IC50 values appear next to each entry.
A complete answer gives the number followed by the unit.

Below: 5 compounds and their reported IC50.
{"COMPOUND": "NC/C(=C\\F)Cn1ncn(-c2cccc(C#Cc3cnc4c(c3)OCCN4)n2)c1=O", "TARGET_SYSTEM": "recombinant human VAP-1 (Homo sapiens, UniProt Q16853)", "REPORTED_PROPERTY": "IC50", "RESULT": "0.6 nM"}
{"COMPOUND": "NC/C(=C/F)Cn1ncn(-c2ncc(-c3ccc4nonc4c3)s2)c1=O [Example 234, hydrochloride]", "TARGET_SYSTEM": "recombinant human VAP-1 (Homo sapiens, UniProt Q16853)", "REPORTED_PROPERTY": "IC50", "RESULT": "0.98 nM"}
{"COMPOUND": "NC/C(=C\\F)Cn1ncn(-c2cc(-c3ccc4sc(N)nc4c3)ccn2)c1=O", "TARGET_SYSTEM": "recombinant human VAP-1 (Homo sapiens, UniProt Q16853)", "REPORTED_PROPERTY": "IC50", "RESULT": "0.41 nM"}
{"COMPOUND": "NC/C(=C\\F)Cn1ncn(-c2cc(-c3ccc4c(c3)OCO4)ccn2)c1=O", "TARGET_SYSTEM": "recombinant human VAP-1 (Homo sapiens, UniProt Q16853)", "REPORTED_PROPERTY": "IC50", "RESULT": "0.74 nM"}
{"COMPOUND": "CN(C)c1ccc(C#Cc2cccc(-n3cnn(C/C(=C/F)CN)c3=O)n2)cn1", "TARGET_SYSTEM": "recombinant human VAP-1 (Homo sapiens, UniProt Q16853)", "REPORTED_PROPERTY": "IC50", "RESULT": "0.5 nM"}

// recorded IC50 for NC/C(=C\F)Cn1ncn(-c2cccc(-c3cccc4[nH]c(=O)ccc34)n2)c1=O [Example 201, hydrochloride] : 1.3 nM

Lab note: measured IC50 of NC/C(=C\F)Cn1ncn(-c2cccc(/C=C/c3cnc4c(c3)NC(=O)CO4)n2)c1=O [Example 241, hydrochloride] was 0.5 nM

The compound listed as NC/C(=C\F)Cn1ncn(-c2cccc(-c3ccc4c(c3)NC(=O)OC4)n2)c1=O [Example 200, hydrochloride] shows IC50 equal to 0.2 nM

// IC50 value for CN1C(=O)CCc2cc(-c3cccc(-n4cnn(C/C(=C/F)CN)c4=O)n3)ccc21 [Example 198, hydrochloride] : 2.9 nM

Looking up CS(=O)(=O)c1ccc(-c2cnc(-n3cnn(C/C(=C/F)CN)c3=O)cn2)cc1 , I see its IC50 listed as 2.2 nM
